- Tested on: LXRa:RXRa (NR concentration 270 nM, RXRa partner concentration 90 nM)
- Assay name: PBM binding z-score (relative to random genomic background probes); higher = stronger binding; sequences stand for … in GC…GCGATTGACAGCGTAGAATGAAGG
Binning scheme for PBM binding z-score: low range: < 0.7; mid range: ≥ 0.7 and < 3; high range: ≥ 3

Ask: Would you mind sorting GTACCAAGGTGAATAGGTCGTTTATGAGTAGGCG into the appropriate category?
Result: mid range

Ask: Would you mind sorting ATCTCTAGGTAAAAGTTCATTGAATCCCGAGGAT into the appropriate category?
Result: high range

Ask: Would you mind sorting TCTACTTGGTCAAAGGTCACACACTCGAAATGCG into the appropriate category?
Result: high range

Ask: Would you mind sorting ACTTACGGGTCAATGAGGTTATAGCACGCGTATA into the appropriate category?
Result: high range

Ask: Would you mind sorting CGAGCTAGGTCAGAACAGGACAGTGAAGGATGAT into the appropriate category?
Result: mid range

Ask: Would you mind sorting TCTCGGAGGACACGAAATGTCAGAGCTCGACATC into the appropriate category?
Result: low range

Ask: Would you mind sorting CAAACTAGGTCACAGAGATCAAAGTCCGTGCGTA into the appropriate category?
Result: high range

Ask: Would you mind sorting AGGATGAGGTTATTAAGATCAGGGAATTGCGGTC into the appropriate category?
Result: mid range

Ask: Would you mind sorting AGAATAAGGTTATTAAGATCAGGGAATTGCGGTC into the appropriate category?
Result: mid range

Ask: Would you mind sorting AGTCAAAATTCAGGACGAGGTAACGTAAAGCACG into the appropriate category?
Result: low range

Ask: Would you mind sorting AGAACGAGAGCACGCTGAGTTGATAGCAGAGTAG into the appropriate category?
Result: low range

* * *

- Test system: THRa:RXRa (NR concentration 90 nM, RXRa partner concentration 90 nM)
- Assay name: PBM binding z-score (relative to random genomic background probes); higher = stronger binding; sequences stand for … in GC…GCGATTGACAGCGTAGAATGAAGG
Binning scheme for PBM binding z-score: Low = under 1, Mid = from 1 up to 4, High = 4 and over

Ask: Would you mind sorting CAAACTAGGTCACAGAGGTCAAAGTACGTGCGTA into the appropriate category?
Result: High

Ask: Would you mind sorting CCTACTGGGCCACGATAGGTCATTGATTCAGTGA into the appropriate category?
Result: Mid

Ask: Would you mind sorting GCTGCTATGTCAACTGATGGTCAGCTAAAGCTCG into the appropriate category?
Result: Low

Ask: Would you mind sorting CAACCTAGGTCAAGGTCAAAGTCGGTTTGTGCCA into the appropriate category?
Result: High

Ask: Would you mind sorting CCTTACGGGTCACGAGGTTATATCACGACGAGCG into the appropriate category?
Result: Mid

Ask: Would you mind sorting CGAACTAGGTCATTGACAGGACAGTAAATAGTAA into the appropriate category?
Result: Mid

Ask: Would you mind sorting GGAACGAGGCCAAGTTGATAGCAGAGTTTGATGG into the appropriate category?
Result: Low

Ask: Would you mind sorting CCTACTGGGCCATTCAGAGTTCATTGATCATATG into the appropriate category?
Result: Mid

Ask: Would you mind sorting AGAACGAGGGCACGCTCAGTTGATAGCAGAGTAG into the appropriate category?
Result: Mid

Ask: Would you mind sorting CCTACTGGGCGAAAAAGGTCATTGATGCCGATAA into the appropriate category?
Result: Mid

Ask: Would you mind sorting CGTACTGGGCCACGAAAGGTCATTGATTCAGTGA into the appropriate category?
Result: Mid

Ask: Would you mind sorting GTACCAAGGTGATTAGGTCGTTGATGAGTAGGCG into the appropriate category?
Result: Mid
